# experimental system: Glucagon receptor (Rattus norvegicus, UniProt P30082)
# Sequence (P30082 whole entry): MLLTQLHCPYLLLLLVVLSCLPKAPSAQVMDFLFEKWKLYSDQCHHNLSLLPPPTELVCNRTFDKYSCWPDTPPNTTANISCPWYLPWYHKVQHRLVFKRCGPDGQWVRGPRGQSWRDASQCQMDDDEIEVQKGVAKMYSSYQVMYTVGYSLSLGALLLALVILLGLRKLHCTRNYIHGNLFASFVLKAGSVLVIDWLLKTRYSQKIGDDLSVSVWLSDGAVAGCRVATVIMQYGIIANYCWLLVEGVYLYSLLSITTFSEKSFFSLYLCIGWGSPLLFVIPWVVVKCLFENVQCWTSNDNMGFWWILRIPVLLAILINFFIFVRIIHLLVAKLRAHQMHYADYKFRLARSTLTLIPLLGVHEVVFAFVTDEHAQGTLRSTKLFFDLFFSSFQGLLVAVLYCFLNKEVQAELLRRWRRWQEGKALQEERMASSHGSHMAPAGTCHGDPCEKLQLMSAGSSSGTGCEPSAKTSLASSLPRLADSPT
measured property: pIC50
One number for each entry, as −log10 of the molar value.

QUERY: Any idea what its pIC50 is? The compound is CN(C)CCCN(C)c1nc2cc(Cl)c(Cl)cc2nc1/C=C/c1ccccc1
RESULT: 5.40
